- Test system: OVCAR-3 ovarian
- assay-comment: NCI-60 one-dose screen, 48 h (100 = growth as untreated, 0 = no growth, -100 = all killed)
- test-settings: 10 µM unless noted
The panel holds about 83,000 compounds, 20% with a hit somewhere; the sample as a whole holds those more often.
Given measured growth, output Y if it is greater than or equal to 70% and N if not.

Below are worked cases with known answers.
compound	class-assignment
COc1ccc(F)cc1/C=C/C(=O)/C=C(/C=C/c1cc(F)ccc1OC)OB(F)F	N
CN1CCc2nc3sc(C(N)=O)c(N)c3c(-c3cccs3)c2C1	N
Cn1cc(C(=O)c2nc(-c3c[nH]c4ccccc34)no2)c2cc(F)ccc21	N
COc1ccc(/C=C/C(=O)c2ccc(Nc3ccnc4cc(Cl)ccc34)cc2)cc1	Y
O=C(CSc1nnc(-c2cnccn2)n1-c1ccccc1)c1ccc(Cl)cc1	Y
Nc1n[nH]c2ccc([C@H]3[C@@H]4C5CCC(C5)[C@@H]4c4c(ccc5[nH]ncc45)N3S(=O)(=O)C3CC3)cc12 (stereo not given in full)	N
Cc1cc(N2CCN(CCNc3ccnc4cc(Cl)ccc34)CC2)nc(N2CCOCC2)n1	Y
Nc1nc2ccc(-c3nc4ccc5[nH]ncc5c4c4c3CCCC4)cc2s1	Y
O=c1c2cccc3c(N4CCCC4)ccc(c32)c2nc3ccccc3n12	Y

Okay, now this compound:
# input Evaluate `COc1cccc(CNc2ccc3ncnc(Nc4ccc(F)c(Cl)c4)c3c2)c1` : growth at minimum 70%?
# output N

---

- System: RPMI-8226 leukemia
- assay-comment: NCI-60 one-dose screen, 48 h
- test-settings: 10 µM unless noted
- Experimental: Growth inhibition of the RPMI-8226 human tumor cell line is measured as a screen for anti-cancer activity. Cells are grown in 96 well plates and exposed to the test compound for 48 hours. Compounds are tested at a single concentration, which is 10^-5 M for most compounds. The reported endpoint is percent growth (GI% or GIPRCNT), where numbers from 0 - 100% represent growth inhibition, and numbers from -100% - 0 represent cell death. For example, a value of 40 represents 60% growth inhibition. […]
Compounds without any hit were thinned out: in the full panel of roughly 83,000, 20% have a hit. Active and inactive are the calls of the source. Rule for the calls: active = growth percent below 10; inactive = the rest.
Hi there, use one of these labels in your reply, thanks! active, inactive

Below are worked cases with known answers.
compound	class-assignment
Cc1ccc(CNc2ccc3nc(CCC4CCCCC4)[nH]c3c2)cc1	active
CC(C)(Sc1cc(C(C)(C)C)c(O)c(C(C)(C)C)c1)Sc1cc(C(C)(C)C)c(OC(=O)CCCC(=O)O)c(C(C)(C)C)c1	inactive
O=C1Nc2ccccc2/C1=C/c1cccn1CCCCn1c2ccccc2c(=O)c2ccccc21	inactive
NC(=O)c1ccc(-c2c3ccccc3cc3c2ccc2ccccc23)cc1	inactive
C1CN(SSN2CCOCC2)CCO1	active

Okay, now this compound:
# input What call does the record list for `O=C(CN1C(=O)S/C(=C\C(Cl)=C\c2ccccc2)C1=O)NCCc1ccc(O)cc1` ?
# output active

---

- Tested on: SK-MEL-2 melanoma
- assay-comment: NCI-60 one-dose screen, 48 h (100 = growth as untreated, 0 = no growth, -100 = all killed)
- test-settings: 10 µM unless noted
This is part of a sample that, as a whole, favours compounds with a hit. Of some 83,000 tested, about 20% had one in any assay.
I'd appreciate it if you could supply growth values for the items below.
Numbers only, in %.

Solved cases below.
molecule	measured-on	growth (%)
N#Cc1ccc2c(c1)C(=O)c1c-2n(CCCN)c(=O)c2cc([N+](=O)[O-])ccc12	SK-MEL-2 melanoma	-52.2
CC(O)(c1ccccc1)C(c1ccccc1)C1CCCCN1 (stereo unspecified)	SK-MEL-2 melanoma	117
COc1ccc(-c2ccc(-c3ccc(C(=N)N)cc3)s2)cc1Cl	SK-MEL-2 melanoma	101
CCOC(=O)c1cc2c(n1C)-c1nc(NC(C)=O)sc1CCC2	SK-MEL-2 melanoma	89.9
Nc1nc2ccccc2c2c1S(=O)(=O)c1ccc(Cl)cc1C2=O	SK-MEL-2 melanoma	42

List reported growth for each of these molecules:
1. O=C(c1ccccc1)c1ccc(C2CCCCC2)cc1
2. CCCCCCCCCCCCCCCCOCCCOP(=O)(O)C1CCCN(O)C1=O (stereo unspecified)
3. CCN(CC)CCn1c2ccc(OC)cc2c2sc3cc(OC)ccc3c(=O)c21

# output
1: 110; 2: 36; 3: 63.5
